The measured values listed here are drawn from ChEMBL document CHEMBL1671617.

System: Acinetobacter baumannii
ASSAY NAME: Antimicrobial activity against Acinetobacter baumannii unique clonal group isolate 38 expressing ampC, ompA, adeB, adeM by Etest method
Type: functional
MIC under 0.2 µg/mL gets T, anything at or over 0.2 µg/mL gets F.

MOLECULE: NCC[C@H](O)C(=O)N[C@@H]1C[C@H](N)[C@@H](O[C@H]2O[C@H](CN)[C@@H](O)[C@H](O)[C@H]2O)[C@H](O)[C@H]1O[C@H]1O[C@H](CO)[C@@H](O)[C@H](N)[C@H]1O
ANSWER LABEL: F

MOLECULE: C[C@@H](O)[C@H]1C(=O)N2C(C(=O)O)=C(S[C@@H]3CN[C@H](C(=O)N(C)C)C3)[C@H](C)[C@H]12
ANSWER LABEL: F

MOLECULE: CC(C)(O/N=C(\C(=O)N[C@@H]1C(=O)N2C(C(=O)[O-])=C(C[n+]3ccccc3)CS[C@H]12)c1csc(N)n1)C(=O)O
ANSWER LABEL: F

MOLECULE: CN(C)c1cc(NC(=O)CNC(C)(C)C)c(O)c2c1C[C@H]1C[C@H]3[C@H](N(C)C)C(O)=C(C(N)=O)C(=O)[C@@]3(O)C(O)=C1C2=O
ANSWER LABEL: T

MOLECULE: C[C@H]1COc2c(N3CCN(C)CC3)c(F)cc3c(=O)c(C(=O)O)cn1c23.C[C@H]1COc2c(N3CCN(C)CC3)c(F)cc3c(=O)c(C(=O)O)cn1c23.O
ANSWER LABEL: T

MOLECULE: C[C@@H](O)[C@H]1C(=O)N2C(C(=O)O)=C(SCCNC=N)C[C@H]12 [IMIPENEM ANHYDROUS]
ANSWER LABEL: T

* * *

Test system: Acinetobacter baumannii
ASSAY NAME: Antimicrobial activity against ISAba1 linked with the blaOXA-51-type beta-lactamase harboring Acinetobacter baumannii zeta clonal group isolate 19 expressing ampC, ompA, adeB, adeM, aacC2 by Etest method
Assay type: functional
Measured MIC values are reported for all entries that follow.

COMPOUND: C[C@@H](O)[C@H]1C(=O)N2C(C(=O)O)=C(SCCNC=N)C[C@H]12 [IMIPENEM ANHYDROUS]
MIC: 1 µg/mL
--
COMPOUND: C[C@H]1COc2c(N3CCN(C)CC3)c(F)cc3c(=O)c(C(=O)O)cn1c23.C[C@H]1COc2c(N3CCN(C)CC3)c(F)cc3c(=O)c(C(=O)O)cn1c23.O [LEVOFLOXACIN]
MIC: 12 µg/mL
--
COMPOUND: C[C@@H](O)[C@H]1C(=O)N2C(C(=O)O)=C(S[C@@H]3CN[C@H](C(=O)N(C)C)C3)[C@H](C)[C@H]12 [MEROPENEM]
MIC: > 1.5 µg/mL

* * *

Known MIC of a selection of compounds
Test system: Acinetobacter baumannii
ASSAY NAME: Antimicrobial activity against ISAba1 linked with the blaOXA-51-type beta-lactamase harboring Acinetobacter baumannii beta clonal group isolate 15 expressing ompA, adeB, adeM, aacA4, blaSHV-5 by Etest method
Format: functional

COMPOUND: C[C@H]1COc2c(N3CCN(C)CC3)c(F)cc3c(=O)c(C(=O)O)cn1c23.C[C@H]1COc2c(N3CCN(C)CC3)c(F)cc3c(=O)c(C(=O)O)cn1c23.O
MIC: > 32 µg/mL
//
COMPOUND: NCC[C@H](O)C(=O)N[C@@H]1C[C@H](N)[C@@H](O[C@H]2O[C@H](CN)[C@@H](O)[C@H](O)[C@H]2O)[C@H](O)[C@H]1O[C@H]1O[C@H](CO)[C@@H](O)[C@H](N)[C@H]1O
MIC: 8 µg/mL
//
COMPOUND: C[C@@H](O)[C@H]1C(=O)N2C(C(=O)O)=C(SCCNC=N)C[C@H]12 [IMIPENEM ANHYDROUS]
MIC: > 16 µg/mL
//
COMPOUND: CN(C)c1cc(NC(=O)CNC(C)(C)C)c(O)c2c1C[C@H]1C[C@H]3[C@H](N(C)C)C(O)=C(C(N)=O)C(=O)[C@@]3(O)C(O)=C1C2=O
MIC: 0.5 µg/mL
//
COMPOUND: CC(C)(O/N=C(\C(=O)N[C@@H]1C(=O)N2C(C(=O)[O-])=C(C[n+]3ccccc3)CS[C@H]12)c1csc(N)n1)C(=O)O
MIC: > 48 µg/mL
//
COMPOUND: C[C@@H](O)[C@H]1C(=O)N2C(C(=O)O)=C(S[C@@H]3CN[C@H](C(=O)N(C)C)C3)[C@H](C)[C@H]12
MIC: > 32 µg/mL

* * *

Tested on: Acinetobacter baumannii
ASSAY NAME: Antimicrobial activity against ISAba1 linked with the blaOXA-51-type beta-lactamase harboring Acinetobacter baumannii beta clonal group isolate 11 expressing ompA, adeB, adeM, blaSHV-5 by Etest method
Assay type: functional
Each entry below carries its reported MIC.
ASSAY ENDPOINT: MIC (µg/mL)

COMPOUND: CN(C)c1cc(NC(=O)CNC(C)(C)C)c(O)c2c1C[C@H]1C[C@H]3[C@H](N(C)C)C(O)=C(C(N)=O)C(=O)[C@@]3(O)C(O)=C1C2=O
SYSTEM UNDER TEST: Acinetobacter baumannii
INEQUALITY SIGN: =
NUMERIC READOUT: 1
--
COMPOUND: NCC[C@H](O)C(=O)N[C@@H]1C[C@H](N)[C@@H](O[C@H]2O[C@H](CN)[C@@H](O)[C@H](O)[C@H]2O)[C@H](O)[C@H]1O[C@H]1O[C@H](CO)[C@@H](O)[C@H](N)[C@H]1O
SYSTEM UNDER TEST: Acinetobacter baumannii
INEQUALITY SIGN: =
NUMERIC READOUT: 3
--
COMPOUND: C[C@@H](O)[C@H]1C(=O)N2C(C(=O)O)=C(S[C@@H]3CN[C@H](C(=O)N(C)C)C3)[C@H](C)[C@H]12
SYSTEM UNDER TEST: Acinetobacter baumannii
INEQUALITY SIGN: >
NUMERIC READOUT: 32

* * *

Test system: Acinetobacter baumannii
ASSAY NAME: Antimicrobial activity against ISAba1 linked with the blaOXA-51-type beta-lactamase harboring Acinetobacter baumannii alpha clonal group isolate 6 expressing ampC, ompA, adeB, adeM, aacC1, aadA1 by Etest method
Type: functional
ASSAY ENDPOINT: MIC (µg/mL)

MOLECULE: CN(C)c1cc(NC(=O)CNC(C)(C)C)c(O)c2c1C[C@H]1C[C@H]3[C@H](N(C)C)C(O)=C(C(N)=O)C(=O)[C@@]3(O)C(O)=C1C2=O
SYSTEM UNDER TEST: Acinetobacter baumannii
INEQUALITY SIGN: =
NUMERIC READOUT: 0.75

MOLECULE: C[C@@H](O)[C@H]1C(=O)N2C(C(=O)O)=C(SCCNC=N)C[C@H]12 [IMIPENEM ANHYDROUS]
SYSTEM UNDER TEST: Acinetobacter baumannii
INEQUALITY SIGN: =
NUMERIC READOUT: 3

MOLECULE: CC(C)(O/N=C(\C(=O)N[C@@H]1C(=O)N2C(C(=O)[O-])=C(C[n+]3ccccc3)CS[C@H]12)c1csc(N)n1)C(=O)O
SYSTEM UNDER TEST: Acinetobacter baumannii
INEQUALITY SIGN: >
NUMERIC READOUT: 256

* * *

Test system: Acinetobacter baumannii
ASSAY NAME: Antimicrobial activity against ISAba1 linked with the blaOXA-51-type beta-lactamase harboring Acinetobacter baumannii zeta clonal group isolate 19 expressing ampC, ompA, adeB, adeM, aacC2 by Etest method
Type: functional

COMPOUND: NCC[C@H](O)C(=O)N[C@@H]1C[C@H](N)[C@@H](O[C@H]2O[C@H](CN)[C@@H](O)[C@H](O)[C@H]2O)[C@H](O)[C@H]1O[C@H]1O[C@H](CO)[C@@H](O)[C@H](N)[C@H]1O
MEASUREMENT UNITS: µg/mL
MIC: 3
--
COMPOUND: CN(C)c1cc(NC(=O)CNC(C)(C)C)c(O)c2c1C[C@H]1C[C@H]3[C@H](N(C)C)C(O)=C(C(N)=O)C(=O)[C@@]3(O)C(O)=C1C2=O
MEASUREMENT UNITS: µg/mL
MIC: 0.75
--
COMPOUND: CC(C)(O/N=C(\C(=O)N[C@@H]1C(=O)N2C(C(=O)[O-])=C(C[n+]3ccccc3)CS[C@H]12)c1csc(N)n1)C(=O)O
MEASUREMENT UNITS: µg/mL
MIC: 24

* * *

We begin with a simple list: items and their reported MIC.
Tested on: Acinetobacter baumannii
ASSAY NAME: Antimicrobial activity against Acinetobacter baumannii lambda clonal group isolate 27 expressing ampC, ompA, adeB, adeM, aadB, aadA1 by Etest method
Type: functional
ASSAY ENDPOINT: MIC (µg/mL)

COMPOUND: CC(C)(O/N=C(\C(=O)N[C@@H]1C(=O)N2C(C(=O)[O-])=C(C[n+]3ccccc3)CS[C@H]12)c1csc(N)n1)C(=O)O [CEFTAZIDIME]
ASSAY ENDPOINT: MIC
INEQUALITY SIGN: >
NUMERIC READOUT: 256
//
COMPOUND: NCC[C@H](O)C(=O)N[C@@H]1C[C@H](N)[C@@H](O[C@H]2O[C@H](CN)[C@@H](O)[C@H](O)[C@H]2O)[C@H](O)[C@H]1O[C@H]1O[C@H](CO)[C@@H](O)[C@H](N)[C@H]1O [AMIKACIN]
ASSAY ENDPOINT: MIC
INEQUALITY SIGN: <
NUMERIC READOUT: 0.5
//
COMPOUND: C[C@H]1COc2c(N3CCN(C)CC3)c(F)cc3c(=O)c(C(=O)O)cn1c23.C[C@H]1COc2c(N3CCN(C)CC3)c(F)cc3c(=O)c(C(=O)O)cn1c23.O [LEVOFLOXACIN]
ASSAY ENDPOINT: MIC
INEQUALITY SIGN: =
NUMERIC READOUT: 3
//
COMPOUND: C[C@@H](O)[C@H]1C(=O)N2C(C(=O)O)=C(S[C@@H]3CN[C@H](C(=O)N(C)C)C3)[C@H](C)[C@H]12 [MEROPENEM]
ASSAY ENDPOINT: MIC
INEQUALITY SIGN: =
NUMERIC READOUT: 32
//
COMPOUND: C[C@@H](O)[C@H]1C(=O)N2C(C(=O)O)=C(SCCNC=N)C[C@H]12 [IMIPENEM ANHYDROUS]
ASSAY ENDPOINT: MIC
INEQUALITY SIGN: =
NUMERIC READOUT: 4
//
COMPOUND: CN(C)c1cc(NC(=O)CNC(C)(C)C)c(O)c2c1C[C@H]1C[C@H]3[C@H](N(C)C)C(O)=C(C(N)=O)C(=O)[C@@]3(O)C(O)=C1C2=O [TIGECYCLINE]
ASSAY ENDPOINT: MIC
INEQUALITY SIGN: =
NUMERIC READOUT: 0.19
